assay: Solubility in 0.2M K2CO3 solution (pH of a developer solution); type: physicochemical; details: room temperature
MEASURED_PARAMETER: Solubility of the active substance in K2CO3 0.2M solution (%)
Note: unit % is implicit; provide only the numeric part.

Just so you know, measured Solubility of the active substance in K2CO3 0.2M solution for O=C([O-])CC(Nc1nc(Nc2ccccc2)nc(Nc2ccc(/C=C/c3ccc(Nc4nc(Nc5ccccc5)nc(NC(CC(=O)[O-])C(=O)[O-])n4)cc3S(=O)(=O)[O-])c(S(=O)(=O)[O-])c2)n1)C(=O)[O-].[Na+].[Na+].[Na+].[Na+].[Na+].[Na+] (stereo not shown) [B] came out at 25.6

Just so you know, measured Solubility of the active substance in K2CO3 0.2M solution for COc1nc(NCCS(=O)(=O)[O-])nc(Nc2ccc(/C=C/c3ccc(Nc4nc(OC)nc(N(CCO)CCO)n4)cc3S(=O)(=O)[O-])c(S(=O)(=O)[O-])c2)n1.[Na+].[Na+].[Na+] [Comp-1, reference compound] came out at 3.4

Just so you know, measured Solubility of the active substance in K2CO3 0.2M solution for O=C(O)CN(CC(=O)O)c1nc(Nc2ccc(/C=C/c3ccc(Nc4nc(Nc5cc(S(=O)(=O)O)ccc5S(=O)(=O)O)nc(N(CC(=O)O)CC(=O)O)n4)cc3S(=O)(=O)O)c(S(=O)(=O)O)c2)nc(Nc2cc(S(=O)(=O)O)ccc2S(=O)(=O)O)n1.[Na+].[Na+].[Na+].[Na+].[Na+].[Na+].[Na+].[Na+].[Na+].[Na+] [G] came out at 32.0

Just so you know, measured Solubility of the active substance in K2CO3 0.2M solution for CN(CC(=O)[O-])c1nc(Nc2ccc(/C=C/c3ccc(Nc4nc(Nc5cc(S(=O)(=O)[O-])ccc5S(=O)(=O)[O-])nc(N(C)CC(=O)[O-])n4)cc3S(=O)(=O)[O-])c(S(=O)(=O)[O-])c2)nc(Nc2cc(S(=O)(=O)[O-])ccc2S(=O)(=O)[O-])n1.[Na+].[Na+].[Na+].[Na+].[Na+].[Na+].[Na+].[Na+] [H] came out at 32.0

Just so you know, measured Solubility of the active substance in K2CO3 0.2M solution for O=C([O-])CN(CC(=O)[O-])c1nc(Nc2ccccc2)nc(Nc2ccc(/C=C/c3ccc(Nc4nc(Nc5ccccc5)nc(N(CC(=O)[O-])CC(=O)[O-])n4)cc3S(=O)(=O)[O-])c(S(=O)(=O)[O-])c2)n1.[Na+].[Na+].[Na+].[Na+].[Na+].[Na+] [E] came out at 38.5

Just so you know, measured Solubility of the active substance in K2CO3 0.2M solution for O=S(=O)([O-])c1ccc(Nc2nc(Nc3ccc(/C=C/c4ccc(Nc5nc(Nc6ccc(S(=O)(=O)[O-])cc6S(=O)(=O)[O-])nc(N6CCOCC6)n5)cc4S(=O)(=O)[O-])c(S(=O)(=O)[O-])c3)nc(N3CCOCC3)n2)c(S(=O)(=O)[O-])c1.[Na+].[Na+].[Na+].[Na+].[Na+].[Na+] [Comp-3, reference compound] came out at 6.6

Just so you know, measured Solubility of the active substance in K2CO3 0.2M solution for O=C([O-])CC(Nc1nc(Nc2ccc(/C=C/c3ccc(Nc4nc(Nc5cc(S(=O)(=O)[O-])ccc5S(=O)(=O)[O-])nc(NC(CC(=O)[O-])C(=O)[O-])n4)cc3S(=O)(=O)[O-])c(S(=O)(=O)[O-])c2)nc(Nc2cc(S(=O)(=O)[O-])ccc2S(=O)(=O)[O-])n1)C(=O)[O-].[Na+].[Na+].[Na+].[Na+].[Na+].[Na+].[Na+].[Na+].[Na+].[Na+] (stereo not shown) [C] came out at 39.0
